system: WT1+ leukemia; assay: Cr51 release assay, cytotoxic CTL response vs WT1+ leukemia expressing restricting HLA allele; type: cell-based, human; conditions: HLA allele A0201; 50:1 E:T
Where a SMILES comes first, the peptide text is derived from it.
assay-metric: Cytotoxic CTL response, % vs WT1+ Leukemia (%)

molecule: CC(C)C[C@H](NC(=O)[C@@H](N)CCCCN)C(=O)NCC(=O)N[C@@H](C)C(=O)N[C@@H](C)C(=O)N[C@@H](CCC(=O)O)C(=O)N[C@@H](C)C(=O)N[C@@H](CO)C(=O)N[C@@H](C)C(=O)O [SEQ ID NO: 150] (H-KLGAAEASA-OH; N-terminus and C-terminus assumed)
unit-label: %
measured-value: 37

====

test system: WT1- allo APC with restricting HLA allele; experiment: Cr51 release assay, cytotoxic CTL response vs unloaded allogeneic APC sharing restricting HLA allele; assay type: cell-based, human; details: HLA allele B3501; 50:1 E:T
Where a SMILES comes first, the peptide text is derived from it.
assay-metric: Cytotoxic CTL response, % vs WT1- allo APC with restricting HLA allele (%)

molecule: C[C@@H](O)[C@H](NC(=O)[C@@H](NC(=O)[C@H](Cc1c[nH]cn1)NC(=O)[C@H](CC(N)=O)NC(=O)[C@H](CC(=O)O)NC(=O)[C@H](CO)NC(=O)[C@H](CCC(=O)O)NC(=O)[C@H](Cc1ccc(O)cc1)NC(=O)CN)[C@@H](C)O)C(=O)O [SEQ ID NO: 178] (H-GYESDNHTT-OH; N-terminus and C-terminus assumed)
unit-label: %
measured-value: 0
//
molecule: CSCC[C@H](NC(=O)[C@@H]1CCCN1C(=O)[C@H](CC(=O)O)NC(=O)[C@H](CCC(=O)O)NC(=O)[C@H](Cc1c[nH]cn1)NC(=O)[C@H](CCCCN)NC(=O)[C@H](Cc1ccccc1)NC(=O)[C@H](CO)NC(=O)[C@@H](N)Cc1c[nH]cn1)C(=O)O [SEQ ID NO: 165] (H-HSFKHEDPM-OH; N-terminus and C-terminus assumed)
unit-label: %
measured-value: 3
//
molecule: CC(C)C[C@H](NC(=O)[C@H](CS)NC(=O)[C@H](CO)NC(=O)[C@@H]1CCCN1)C(=O)N[C@@H](CCC(=O)O)C(=O)N[C@@H](CO)C(=O)N[C@@H](CCC(N)=O)C(=O)N1CCC[C@H]1C(=O)N[C@@H](C)C(=O)O [SEQ ID NO: 162] (H-PSCLESQPA-OH; N-terminus and C-terminus assumed)
unit-label: %
measured-value: 0
//
molecule: CSCC[C@H](NC(=O)[C@H](CCC(N)=O)NC(=O)[C@H](CCC(N)=O)NC(=O)[C@@H]1CCCN1C(=O)[C@H](CCC(=O)O)NC(=O)[C@H](CO)NC(=O)CNC(=O)[C@H](CO)NC(=O)[C@H](C)N)C(=O)O [SEQ ID NO: 151] (H-ASGSEPQQM-OH; N-terminus and C-terminus assumed)
unit-label: %
measured-value: 3

====

test system: WT1 peptide loaded autologous APC; assay: Cr51 release assay, cytotoxic CTL response vs peptide loaded autologous APC; assay type: cell-based, human; conditions: HLA allele A0201; 50:1 E:T
Where a SMILES comes first, the peptide text is derived from it.
assay-metric: Cytotoxic CTL response, % vs WT1 peptide loaded autologous APC (%)

molecule: CC(C)C[C@H](NC(=O)[C@H](CS)NC(=O)CNC(=O)[C@@H]1CCCN1)C(=O)N[C@@H](CCC(N)=O)C(=O)N[C@@H](CCC(N)=O)C(=O)N1CCC[C@H]1C(=O)N[C@@H](CCC(=O)O)C(=O)N[C@@H](CCC(N)=O)C(=O)O [SEQ ID NO: 148] (H-PGCLQQPEQ-OH; N-terminus and C-terminus assumed)
measured-value: 54
//
molecule: CC(C)C[C@H](NC(=O)[C@H](C)NC(=O)[C@H](CS)NC(=O)CNC(=O)CN)C(=O)N1CCC[C@H]1C(=O)N[C@H](C(=O)N[C@@H](CO)C(=O)NCC(=O)N[C@@H](C)C(=O)O)C(C)C [SEQ ID NO: 153] (H-GGCALPVSGA-OH; N-terminus and C-terminus assumed)
measured-value: 32
//
molecule: CC(C)C[C@H](NC(=O)[C@H](Cc1c[nH]cn1)NC(=O)[C@H](CC(=O)O)NC(=O)[C@H](CO)NC(=O)[C@H](CCCNC(=N)N)NC(=O)[C@H](CO)NC(=O)[C@H](Cc1ccccc1)NC(=O)[C@H](CCCCN)NC(=O)[C@@H](N)CCCNC(=N)N)C(=O)O [SEQ ID NO: 181] (H-RKFSRSDHL-OH; N-terminus and C-terminus assumed)
measured-value: 40
//
molecule: C[C@@H](O)[C@H](N)C(=O)N[C@@H](Cc1c[nH]cn1)C(=O)N[C@@H](CO)C(=O)N1CCC[C@H]1C(=O)N[C@H](C(=O)N[C@@H](Cc1c[nH]cn1)C(=O)N1CCC[C@H]1C(=O)N1CCC[C@H]1C(=O)N[C@@H](CCCNC(=N)N)C(=O)O)[C@@H](C)O [SEQ ID NO: 146] (H-THSPTHPPR-OH; N-terminus and C-terminus assumed)
measured-value: 50
//
molecule: CC(C)C[C@H](NC(=O)[C@H](C)NC(=O)[C@H](CC(N)=O)NC(=O)[C@H](CC(C)C)NC(=O)[C@H](CC(=O)O)NC(=O)[C@@H](N)CCCNC(=N)N)C(=O)N[C@@H](CC(C)C)C(=O)N1CCC[C@H]1C(=O)N[C@@H](C)C(=O)N[C@H](C(=O)O)C(C)C [SEQ ID NO: 152] (H-RDLNALLPAV-OH; N-terminus and C-terminus assumed)
measured-value: 51
//
molecule: CSCC[C@H](NC(=O)[C@@H](N)CC(N)=O)C(=O)N[C@@H](Cc1c[nH]cn1)C(=O)N[C@@H](CCC(N)=O)C(=O)N[C@@H](CCCNC(=N)N)C(=O)N[C@@H](CC(N)=O)C(=O)N[C@@H](Cc1c[nH]cn1)C(=O)N[C@H](C(=O)N[C@@H](CCCCN)C(=O)N[C@@H](CC(C)C)C(=O)O)[C@@H](C)O [SEQ ID NO: 183] (H-NMHQRNHTKL-OH; N-terminus and C-terminus assumed)
measured-value: 40
//
molecule: CC(C)C[C@H](NC(=O)[C@@H](NC(=O)[C@H](C)NC(=O)CNC(=O)[C@H](CC(C)C)NC(=O)[C@@H](N)CC(N)=O)[C@@H](C)O)C(=O)N[C@@H](CCCCN)C(=O)NCC(=O)N[C@H](C(=O)O)C(C)C [SEQ ID NO: 175] (H-NLGATLKGV-OH; N-terminus and C-terminus assumed)
measured-value: 18
//
molecule: CC(C)C[C@H](NC(=O)[C@@H](N)CCCCN)C(=O)NCC(=O)N[C@@H](C)C(=O)N[C@@H](C)C(=O)N[C@@H](CCC(=O)O)C(=O)N[C@@H](C)C(=O)N[C@@H](CO)C(=O)N[C@@H](C)C(=O)O [SEQ ID NO: 150] (H-KLGAAEASA-OH; N-terminus and C-terminus assumed)
measured-value: 41
//
molecule: CC(C)C[C@H](NC(=O)[C@H](CO)NC(=O)[C@@H]1CCCN1C(=O)[C@@H]1CCCN1C(=O)[C@H](Cc1ccccc1)NC(=O)[C@H](Cc1c[nH]cn1)NC(=O)[C@@H]1CCCN1C(=O)[C@H](CC(C)C)NC(=O)[C@@H]1CCCN1)C(=O)O [SEQ ID NO: 144] (H-PLPHFPPSL-OH; N-terminus and C-terminus assumed)
measured-value: 30
//
molecule: CSCC[C@H](NC(=O)[C@H](CCC(N)=O)NC(=O)[C@H](CC(N)=O)NC(=O)[C@@H](N)Cc1c[nH]c2ccccc12)C(=O)N[C@@H](CC(N)=O)C(=O)N[C@@H](CC(C)C)C(=O)NCC(=O)N[C@@H](C)C(=O)N[C@H](C(=O)O)[C@@H](C)O [SEQ ID NO: 171] (H-WNQMNLGAT-OH; N-terminus and C-terminus assumed)
measured-value: 18
//
molecule: C[C@H](NC(=O)[C@@H]1CCCN1)C(=O)N1CCC[C@H]1C(=O)N1CCC[C@H]1C(=O)N1CCC[C@H]1C(=O)N1CCC[C@H]1C(=O)N1CCC[C@H]1C(=O)N1CCC[C@H]1C(=O)N1CCC[C@H]1C(=O)O [SEQ ID NO: 158] (H-PAPPPPPPP-OH; N-terminus and C-terminus assumed)
measured-value: 40
//
molecule: CC(C)C[C@H](N)C(=O)N[C@@H](CC(=O)O)C(=O)N[C@@H](Cc1ccccc1)C(=O)N[C@@H](C)C(=O)N1CCC[C@H]1C(=O)N1CCC[C@H]1C(=O)NCC(=O)N[C@@H](C)C(=O)N[C@@H](CO)C(=O)O [SEQ ID NO: 155] (H-LDFAPPGAS-OH; N-terminus and C-terminus assumed)
measured-value: 73
//
molecule: CC[C@H](C)[C@H](NC(=O)[C@H](C)N)C(=O)N[C@@H](CC(C)C)C(=O)N[C@@H](CC(=O)O)C(=O)N[C@@H](Cc1ccccc1)C(=O)N[C@@H](CC(C)C)C(=O)N[C@@H](CC(C)C)C(=O)N[C@@H](CC(C)C)C(=O)N[C@@H](CCC(N)=O)C(=O)O [SEQ ID NO: 147] (H-AILDFLLLQ-OH; N-terminus and C-terminus assumed)
measured-value: 18
